Target: T1, hPASK PAS-A domain (residues 131–237) (human, UniProt Q96RG2 131-237, uniformly 15N-labeled)
T1 sequence (looked up): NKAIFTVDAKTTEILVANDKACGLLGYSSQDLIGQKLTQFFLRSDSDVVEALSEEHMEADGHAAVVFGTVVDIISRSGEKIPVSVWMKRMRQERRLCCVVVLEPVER
Test: NMR titration
Assay Readout: pKd
Answer as the number alone; pKd is minus log10 of concentration in mol/L.

Reported pKd for MRGAAGLQREIQEGAYSGSCYHRDGL (peptide, UniProt Q96RG2 879-904, looked up) [PIM peptide (PASK AA 879–904)] was 2.62

Source listed as paper PMC10922792.
